Values compiled from PubChem BioAssay (NCI).

Test system: LOX IMVI melanoma
TEST_METHOD_NOTES: NCI-60 one-dose screen, 48 h (100 = growth as untreated, 0 = no growth, -100 = all killed)
CONDITION_CONTEXT: 10 µM unless noted
About 83,000 compounds went through this panel and 20% of them were active in at least one assay; those are over-represented in the sample as a whole.

[
  {
    "COMPOUND": "COC(=O)Nc1ccc2ccc3c(NC(=O)OC)ccc4ccc1c2c43 (tested in a mixture with another compound)",
    "DISPLAY_UNIT": "%",
    "growth": 32.9
  },
  {
    "COMPOUND": "Cc1ccc2nc(SCC(=O)Nc3ccc(-c4nc5ccccc5s4)c(Cl)c3)[nH]c2c1",
    "DISPLAY_UNIT": "%",
    "growth": 107
  },
  {
    "COMPOUND": "O=C(c1ccc(Cl)cc1)c1ccc(Cl)cc1",
    "DISPLAY_UNIT": "%",
    "growth": 103
  },
  {
    "COMPOUND": "O=C(N/N=C/c1cccc(O)c1O)c1ccccc1",
    "DISPLAY_UNIT": "%",
    "growth": 7.69
  },
  {
    "COMPOUND": "O=C(NCCCl)NCCN1c2nc3ccccc3cc2Sc2cc3ccccc3nc21",
    "DISPLAY_UNIT": "%",
    "growth": 49.7
  },
  {
    "COMPOUND": "CC(=O)N1N=C(c2ccc(Cl)cc2)CC1c1c(C)nn(-c2ccccc2)c1N(C)Cc1ccccc1 (stereo unspecified)",
    "DISPLAY_UNIT": "%",
    "growth": 84.1
  },
  {
    "COMPOUND": "NC(=O)c1cc(Cl)ccc1NC(=O)c1ccccc1-c1ccccc1",
    "DISPLAY_UNIT": "%",
    "growth": 28.9
  },
  {
    "COMPOUND": "CCNCCCn1c2c(c3ccc(F)cc3c1=O)C(=O)c1cc(OC)cnc1-2",
    "DISPLAY_UNIT": "%",
    "growth": -64.9
  },
  {
    "COMPOUND": "c1ccc(CN=C(NCc2ccccc2)NCc2ccccc2)cc1",
    "DISPLAY_UNIT": "%",
    "growth": 59.8
  },
  {
    "COMPOUND": "COc1ccc2nc(-c3ccc(Cl)cc3)cc(-c3nnc(SCC(=O)Nc4ccc(C(C)=O)cc4)n3-c3ccccc3)c2c1",
    "DISPLAY_UNIT": "%",
    "growth": 105
  },
  {
    "COMPOUND": "CCN(CC)CCSc1ncnc2c1cnn2-c1ccc(S(N)(=O)=O)cc1",
    "DISPLAY_UNIT": "%",
    "growth": 87
  }
]

###

Tested on: SK-MEL-28 melanoma
TEST_METHOD_NOTES: NCI-60 one-dose screen, 48 h
CONDITION_CONTEXT: 10 µM unless noted
This is part of a sample that, as a whole, favours compounds with a hit. Of some 83,000 tested, about 20% had one in any assay. Activity calls are given as the source filed them. Rule for the calls: active = growth percent below 10; inactive = the rest.
Classes used: active, inactive

[
  {
    "COMPOUND": "Oc1c(Cl)cc(Oc2cc(Cl)c(O)c(CN3CCOCC3)c2)cc1CN1CCOCC1",
    "CAT": "inactive"
  },
  {
    "COMPOUND": "CCCc1n(Cc2ccc3ccccc3c2)cc[n+]1Cc1ccc2ccccc2c1",
    "CAT": "active"
  },
  {
    "COMPOUND": "Nc1nc(NC2CC2)c2ncn(C3C=CC(CO)C3)c2n1 (stereo unspecified)",
    "CAT": "inactive"
  },
  {
    "COMPOUND": "CC(C)CNc1nc(N=[N+]=[N-])nc(NCC(C)C)n1",
    "CAT": "inactive"
  },
  {
    "COMPOUND": "COc1cc(/C=N/OC(=O)Nc2ccccc2)cc(OC)c1OC",
    "CAT": "inactive"
  },
  {
    "COMPOUND": "C[C@@H]1[C@H]2[C@H](C=C3[C@@H]4CC[C@H]5Cc6nc7c(nc6C[C@]5(C)[C@H]4C[C@@H](O)[C@@]32C)C[C@@H]2CC[C@H]3C4=C[C@@H]5O[C@@]6(CC[C@](C)(CO)O6)[C@@H](C)[C@@]5(O)[C@@]4(C)[C@H](O)C[C@@H]3[C@@]2(C)C7)O[C@]12CCC(C)(C)O2",
    "CAT": "inactive"
  },
  {
    "COMPOUND": "COc1ccc(NC(=O)c2ccc(-c3ccccc3)cc2)c(C(N)=O)c1",
    "CAT": "inactive"
  },
  {
    "COMPOUND": "NS(=O)(=O)c1ccc(N2CC(c3nc4ccccc4[nH]3)CC2=O)cc1 (stereo unspecified)",
    "CAT": "inactive"
  },
  {
    "COMPOUND": "CCCCCCCCCCNCCSS(=O)(=O)O",
    "CAT": "inactive"
  },
  {
    "COMPOUND": "Cc1csc(C#Cc2cncc(O)c2)n1",
    "CAT": "inactive"
  },
  {
    "COMPOUND": "Nc1ccc(Oc2c(F)c(F)c(Oc3ccc(N)cc3)c(F)c2F)cc1",
    "CAT": "inactive"
  }
]
